- Test system: IL-6 (THP-1 cells)
- Experimental Protocol: Inhibition of IL-6 in LPS-stimulated THP-1 human monocyte cells (HTRF)
- Format: cell-based
- Condition Context: inhibition of IL-6 in LPS-stimulated THP-1 cells, HTRF, 10-point dose-response starting from 10 μM
Experimental Readout: EC50 (nM)

c1cc(-c2ccoc2)c2cc(-c3n[nH]c4cnc(-c5ccncc5)cc34)[nH]c2c1	5080

P = CN(C)CCNc1cc(F)cc(-c2cccc3[nH]c(-c4n[nH]c5cnc(-c6cncc(CN(C)C)c6)cc45)cc23)c1
Q = CCCCC(=O)Nc1cncc(-c2cc3c(-c4cc5c(-c6ccccc6F)cccc5[nH]4)n[nH]c3cn2)c1
R = Fc1ccccc1-c1cccc2[nH]c(-c3n[nH]c4cnc(-c5cn[nH]c5)cc34)cc12
Query string: Ranking field: EC50; order: falling. Provide the labels, sequenced as the question asks.
Result string: P, R, Q

* * *

Let's look at some compounds and their measured inhibition at 10 µM.
- Test system: SW480 colon cancer cells
- Experimental Protocol: Cell viability assay (CellTiter-Blue) in SW480 colon cancer cells
- Type: cell-based
- Condition Context: Homo sapiens, 96 h, four days, 10 μM, read-out: percent inhibition at 10 μM (given for EC50 of >10 μM)
Express it in %; write the number only.

Would you please look over these solved cases?
O=C(Nc1cncc(-c2cc3c(-c4cc5c(-c6ccncc6)cccc5[nH]4)n[nH]c3cn2)c1)C1CCC1	45.9
c1cnc2cc(-c3n[nH]c4cnc(-c5cncc(CNCC6CCCC6)c5)cc34)[nH]c2c1	0
CC(C)(C)CC(=O)Nc1cncc(-c2cc3c(-c4cc5c(-c6ccncc6)cccc5[nH]4)n[nH]c3cn2)c1	14
O=C(Nc1cncc(-c2cc3c(-c4cc5ccccc5[nH]4)n[nH]c3cn2)c1)C1CCCCC1	35.4
O=C(Nc1cncc(-c2cc3c(-c4cc5c(N6CCCCC6)cccc5[nH]4)n[nH]c3cn2)c1)C1CC1	25.3
CS(=O)(=O)NCc1cc(F)cc(-c2cccc3[nH]c(-c4n[nH]c5cnc(-c6cncc(NC(=O)c7ccccc7)c6)cc45)cc23)c1	45.4

// inhibition at 10 µM value for `Fc1ccccc1-c1cccc2[nH]c(-c3n[nH]c4cnc(-c5cn[nH]c5)cc34)cc12` : 46.1

// inhibition at 10 µM value for `CN1CCN(c2cccc3[nH]c(-c4n[nH]c5cnc(-c6cncc(NC(=O)C7CCC7)c6)cc45)cc23)CC1` : 64.6

// inhibition at 10 µM value for `CC(C)CC(=O)Nc1cncc(-c2cc3c(-c4cc5c(-c6ccc(F)cc6)cccc5[nH]4)n[nH]c3cn2)c1` : 28.3

// inhibition at 10 µM value for `O=C(Nc1cncc(-c2cc3c(-c4cc5c(-c6cccc(F)c6)cccc5[nH]4)n[nH]c3cn2)c1)C1CCC1` : 11.5

* * *

- Tested on: IL-6 (THP-1 cells)
- Experimental Protocol: Inhibition of IL-6 in LPS-stimulated THP-1 human monocyte cells (HTRF)
- Type: cell-based
- Condition Context: inhibition of IL-6 in LPS-stimulated THP-1 cells, HTRF, 10-point dose-response starting from 10 μM
pEC50: −log10 of the molar value.
Experimental Readout: pEC50

Would you please look over these solved cases?
CC(C)Nc1cncc(-c2cc3c(-c4cc5c(-c6cc(F)cc(CNS(C)(=O)=O)c6)cccc5[nH]4)n[nH]c3cn2)c1	6.28
O=C(Nc1cncc(-c2cc3c(-c4cc5c(-c6cccnc6)cccc5[nH]4)n[nH]c3cn2)c1)c1ccccc1	6.14

P = Nc1cncc(-c2cc3c(-c4cc5c(-c6ccccc6F)cccc5[nH]4)n[nH]c3cn2)c1
Q = CC(C)(C)C(=O)Nc1cncc(-c2cc3c(-c4cc5c(-c6ccc(F)cc6)cccc5[nH]4)n[nH]c3cn2)c1
Query string: From the recorded data, which exceeds the other in pEC50: P or Q ? Answer = label.
Result string: P

* * *

- System: IL-6 (THP-1 cells)
- Experimental Protocol: Inhibition of IL-6 in LPS-stimulated THP-1 human monocyte cells (HTRF)
- Type: cell-based
- Condition Context: inhibition of IL-6 in LPS-stimulated THP-1 cells, HTRF, 10-point dose-response starting from 10 μM
- Protocol: Human monocyte cell line (THP-1 cells; Catalog # TIB-202, ATCC, Manassas, Va.) were cultured in Roswell Park Memorial Institute (RPMI) 1640 Medium (Catalog #21870-100, Buffalo, N.Y.) with 1% L-glutamine, 1% HEPES, 1% Sodium Pyruvate, 2% Sodium Bicarbonate supplemented with 100 units/mL penicillin, 50 μg/mL streptomycin, 2-mercaptoethanol (0.05 mM) [basal medium] and 10% fetal bovine serum (Catalog #16140089, Life Technologies, Carlsbad, Calif.) at 37° C. and 5% CO2. […]
Experimental Readout: EC50

Would you please look over these solved cases?
CN(C)CCOc1cncc(-c2cc3c(-c4cc5ncccc5[nH]4)n[nH]c3cn2)c1	2.45 µM
Cc1ccncc1-c1cc2c(-c3cc4c(-c5ccncc5)cccc4[nH]3)n[nH]c2cn1	> 10 µM

// EC50 value for `CC(C)(C)CC(=O)Nc1cncc(-c2cc3c(-c4cc5ccccc5[nH]4)n[nH]c3cn2)c1` : > 10 µM

// EC50 value for `CC(C)C(=O)Nc1cncc(-c2cc3c(-c4cc5c(-c6ccccc6F)cccc5[nH]4)n[nH]c3cn2)c1` : > 10 µM

* * *

- System: IL-6 (THP-1 cells)
- Experimental Protocol: Inhibition of IL-6 in LPS-stimulated THP-1 human monocyte cells (HTRF)
- Type: cell-based
- Condition Context: inhibition of IL-6 in LPS-stimulated THP-1 cells, HTRF, 10-point dose-response starting from 10 μM
pEC50: −log10 of the molar value.
Experimental Readout: pEC50

Fc1cccc(-c2cccc3[nH]c(-c4n[nH]c5cnc(-c6cncc(OCc7ccccc7)c6)cc45)cc23)c1	5.40

a = CC(C)(C)C(=O)Nc1cncc(-c2cc3c(-c4cc5c(-c6ccncc6)cccc5[nH]4)n[nH]c3cn2)c1
b = CC(C)CC(=O)Nc1cncc(-c2cc3c(-c4cc5ccccc5[nH]4)n[nH]c3cn2)c1
Query string: Could you check which of a and b has a smaller value for pEC50? Answer = label.
Result string: a

* * *

- Test system: IL-6 (THP-1 cells)
- Experimental Protocol: Inhibition of IL-6 in LPS-stimulated THP-1 human monocyte cells (HTRF)
- Type: cell-based
- Condition Context: inhibition of IL-6 in LPS-stimulated THP-1 cells, HTRF, 10-point dose-response starting from 10 μM
pEC50: −log10 of the molar value.
Experimental Readout: pEC50

c1cnc2cc(-c3n[nH]c4cnc(-c5cncc(OC6CCCCC6)c5)cc34)[nH]c2c1 [Compound 1025]	6.45

I = c1cncc(-c2cc3c(-c4cc5ccccc5[nH]4)n[nH]c3cn2)c1 [Compound 256]
II = c1cncc(-c2cc3c(-c4cc5c(-c6cccnc6)cccc5[nH]4)n[nH]c3cn2)c1 [Compound 88]
III = c1ccc(-c2cc3c(-c4cc5c(-c6ccncc6)cccc5[nH]4)n[nH]c3cn2)nc1 [Compound 140]
Query string: Ascending sort, pEC50. Provide the labels, sequenced as the question asks.
Result string: III, II, I
(III: 6.32, II: 6.96, I: 7.25)

* * *

- Test system: IL-6 (THP-1 cells)
- Experimental Protocol: Inhibition of IL-6 in LPS-stimulated THP-1 human monocyte cells (HTRF)
- Assay type: cell-based
- Condition Context: inhibition of IL-6 in LPS-stimulated THP-1 cells, HTRF, 10-point dose-response starting from 10 μM
- Experimental: Human monocyte cell line (THP-1 cells; Catalog # TIB-202, ATCC, Manassas, Va.) were cultured in Roswell Park Memorial Institute (RPMI) 1640 Medium (Catalog #21870-100, Buffalo, N.Y.) with 1% L-glutamine, 1% HEPES, 1% Sodium Pyruvate, 2% Sodium Bicarbonate supplemented with 100 units/mL penicillin, 50 μg/mL streptomycin, 2-mercaptoethanol (0.05 mM) [basal medium] and 10% fetal bovine serum (Catalog #16140089, Life Technologies, Carlsbad, Calif.) at 37° C. and 5% CO2. […]
Experimental Readout: EC50 (nM)

Would you please look over these solved cases?
CS(=O)(=O)NCc1cc(F)cc(-c2cccc3[nH]c(-c4n[nH]c5cnc(-c6cncc(CNCC7CCCC7)c6)cc45)cc23)c1 [Compound 501]	1030
CC(C)Nc1cncc(-c2cc3c(-c4cc5c(N6CCCCC6)cccc5[nH]4)n[nH]c3cn2)c1 [Compound 180]	1000

I = CN(C)CCNc1cc(F)cc(-c2cccc3[nH]c(-c4n[nH]c5cnc(-c6cncc(NC(=O)C(C)(C)C)c6)cc45)cc23)c1 [Compound 456]
II = CN(C)CCNc1cc(F)cc(-c2cccc3[nH]c(-c4n[nH]c5cnc(-c6cncc(N)c6)cc45)cc23)c1 [Compound 451]
Query string: From the recorded data, which exceeds the other in EC50: I or II ? Answer = label.
Result string: I
(I: 286 nM, II: 91 nM)
